System: human red blood cells (hRBC)
Assay: Hemolysis of human red blood cells
Type: cell-based
Settings: red cells of human, 1 h, 100
Where a SMILES comes first, the peptide text is derived from it. [ ]: non-standard residue; d: D form. Cha = N[C@@H](CC1CCCCC1)C(=O)O; Chg = N[C@H](C(=O)O)C1CCCCC1; Tle = CC(C)(C)[C@H](N)C(=O)O; Pip = O=C(O)[C@@H]1CCCCN1; dDab = NCC[C@@H](N)C(=O)O; Orn = NCCC[C@H](N)C(=O)O; Dab = NCC[C@H](N)C(=O)O; Dap = NC[C@H](N)C(=O)O
EXPERIMENTAL ENDPOINT: Hemolysis at 100 μg/ml
Report the figure along with its unit, number first.

COMPOUND: C[C@@H]1NC(=O)[C@H](C(C)(C)C)NC(=O)[C@H](CCN)NC(=O)[C@H](Cc2c[nH]c3ccccc23)NC(=O)[C@H](CCN)NC(=O)[C@@H](CCN)NC(=O)[C@H](CCCN)NC(=O)[C@H](CCN)NC(=O)[C@H](CC2CCCCC2)NC(=O)[C@H](CN)NC(=O)[C@H](Cc2c[nH]c3ccccc23)NC(=O)[C@@H]2CCCCN2C(=O)[C@H]2CCCN2C(=O)[C@H](CO)NC1=O [compound 63] (cyclo(AS[dP][Pip]W[Dap][Cha][Dab][Orn][dDab][Dab]W[Dab][Tle]))
RESULT: 3%

// returns reported Hemolysis at 100 μg/ml for input CC(C)C[C@@H]1NC(=O)[C@@H]2CCCN2C(=O)[C@H]2CCCN2C(=O)[C@H](CO)NC(=O)[C@H](C)NC(=O)[C@H](C2CCCCC2)NC(=O)[C@H](CCN)NC(=O)[C@H](Cc2c[nH]c3ccccc23)NC(=O)[C@H](CCN)NC(=O)[C@@H](CCN)NC(=O)[C@H](CCCN)NC(=O)[C@H](CCN)NC(=O)[C@H](C(C)(C)C)NC(=O)[C@H](CO)NC1=O [compound 137] (cyclo(LS[Tle][Dab][Orn][dDab][Dab]W[Dab][Chg]AS[dP]P))
4%
